- experimental_target: T1, recombinant human CD38 extracellular domain protein (ACROBiosystems, Cat #CD8-H5224) (human, UniProt P28907 43-300)
- T1 construct: Bought protein; also called recombinant human CD38 protein
- experiment_notes: BLI (Octet 384), IgG on anti-human IgG Fc biosensors, soluble human CD38 as analyte, 1:1 global fit
# kon per entry
Dear colleague, please return just the value in M⁻¹ s⁻¹, with no unit written.

* IgG OKT10-2 (antibody, V domains shown, also called humanized OKT10 IgG (OKT10VH2 / OKT10VL2)) VH: EVQLLESGGGLVQPGGSLRLSCAASGFDFSRSWMNWVRQAPGKGLEWVSEINPDSSTINYATSLKDRFTISRDNSKNTLYLQMNSLRAEDTAVYYCARYGNWFPYWGQGTLVTVSS VL: DIQMTQSPSSLSASVGDRVTITCKASQNVDTNVAWYQQKPGKAPKALIYSASYRYSGVPSRFSGSGSGTDFTLTISSLQPEDFATYYCQQYDSYPLTFGQGTKVEIK | 400000

Q: Entry IgG B-1 (antibody, V domains shown, also called chimeric IgG of Clone B) VH: QAYLQQSGAEVVRSGASVKMSCKAAGYTFTSYNMHWVKQTPGQGLEWIGYIYPGNGGTNYNQKFKGKATLTADTSSTTAYMQISSLTSEDSAVYFCARGASMITTGAWFAYWGQGTLVTVSA VL: NIVLTQSPASLAVSLGQRATISCRASESLDTYGNSFMYWYQQKPGQPPKLLIYLASSLESGVPARFSGSGSRTDFTLTIDPVEADDAATYYCHQNHEDPWTFGGGTKLEIK : reported kon = ?
Result: 139000

Q: Entry IgG OKT10-1 (antibody, V domains shown, also called parental OKT10 in IgG format) VH: EVKLQESGGGLVQPGGSLKLSCAASGFDFSRSWMNWVRQAPGKGLEWIGEINPDSSTINYTTSLKDKFIISRDNAKNTLYLQMTKVRSEDTALYYCARYGNWFPYWGQGTLVTVSA VL: DIVMTQSPKIMPTSVGDRVSVTCKASQNVDTNVAWYQQKPGQSPKALIYSASYRYSGVPDRFTGSGSGTDFTLTITNVQSEDLAEYFCQQYDSYPLTFGAGTKLDLK : reported kon = ?
Result: 344000
